Tested on: U-2932
Experiment: growth inhibition by drug alone (1 - RLU/untreated control) (fraction); higher = stronger inhibition
Settings: 10 nM; time (day): 4; 177Lu-lilotomab satetraxetan 0 ug/ml
Structures can show the parent of a compound that is named as a salt.
growth inhibition by drug alone below 0.009 gives N; growth inhibition by drug alone at or above it gives Y.

CC[C@@H]1/C=C(\C)C[C@H](C)C[C@H](OC)[C@H]2O[C@@](O)(C(=O)C(=O)N3CCCC[C@H]3C(=O)O[C@H](/C(C)=C/[C@@H]3CC[C@H](Cl)[C@H](OC)C3)[C@H](C)[C@@H](O)CC1=O)[C@H](C)C[C@@H]2OC [Pimecrolimus]
Y
Oc1ccc(Nc2nc(-c3ccc(Cl)cc3)cs2)cc1
Y
Cc1cccc(-c2[nH]c(C(C)(C)C)nc2-c2ccc3nccnc3c2)n1
Y
C#Cc1cccc(Nc2ncnc3cc(OC)c(OCCCCCCC(=O)NO)cc23)c1
N
CCc1c2c(nc3ccc(OC(=O)N4CCC(N5CCCCC5)CC4)cc13)-c1cc3c(c(=O)n1C2)COC(=O)[C@]3(O)CC [Irinotecan HCl Trihydrate (Campto)]
N

In: Form field: growth inhibition by drug alone at least 0.009? Entry: Nc1ccn([C@@H]2O[C@H](CO)[C@@H](O)[C@@H]2O)c(=O)n1 [Cytarabine]
Out: Y

In: Form field: growth inhibition by drug alone at least 0.009? Entry: `CS(=O)(=O)c1cccc(CNc2nc(Nc3ccc4c(c3)CCC(=O)N4)ncc2C(F)(F)F)c1`
Out: N
